Where do these numbers come from? They come from patent US20140135293A1.

So I've got a bunch of compounds here, and I need their EC50 values.
Molecular target: human S1P1 receptor (Homo sapiens, UniProt P21453)
Construct: expressed in transfected cells; membranes used
Sequence (P21453 whole entry): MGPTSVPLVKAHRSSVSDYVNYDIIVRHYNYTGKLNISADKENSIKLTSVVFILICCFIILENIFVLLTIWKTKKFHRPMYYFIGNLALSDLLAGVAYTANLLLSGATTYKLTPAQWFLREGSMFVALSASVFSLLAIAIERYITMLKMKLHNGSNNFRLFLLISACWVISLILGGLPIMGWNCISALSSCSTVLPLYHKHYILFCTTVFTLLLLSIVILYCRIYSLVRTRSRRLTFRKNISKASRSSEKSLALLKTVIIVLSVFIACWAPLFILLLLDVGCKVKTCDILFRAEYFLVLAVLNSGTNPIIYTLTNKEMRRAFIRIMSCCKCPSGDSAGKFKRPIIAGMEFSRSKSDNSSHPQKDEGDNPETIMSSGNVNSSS
Test: GTP y35S binding assay for S1P1 activity
Format: biochemical
Conditions: membranes of cells stably expressing the S1P1 receptor, agonist potency
Give bare numbers, in nM.

In the examples that follow, each entry is paired with its recorded EC50.
{"compound-smiles": "Cc1ccc(CC(=C=Cc2ccc(CNCCCP(=O)(O)O)cc2-c2ccco2)c2cc(F)cc(F)c2)cc1C", "observed": 58.5}
{"compound-smiles": "Cc1ccc(CC(=C=Cc2ccc(CNCCCP(=O)(O)O)cc2-c2cccs2)c2cc(F)cc(F)c2)cc1C", "observed": 58.4}

Could you now consider this next compound?
According to the records, this compound CCc1cc(C=C=C(Cc2ccc(C)c(C)c2)c2cc(F)cc(F)c2)ccc1CNCCCP(=O)(O)O displays EC50 of 1640
